Assay: Solubility of compound in water
Type: physicochemical
Conditions: water; read-out: solubility
measured.quantity: solubility (µg/mL)
Entry rule: numbers only, all in µg/mL.

Data request: I am curious: what solubility value has been reported for COC(=O)c1cccc(NC(=O)c2cc3cc([N+](=O)[O-])ccc3s2)c1 ?
Data returned: 25

Data request: Same question, NC(=O)c1ccccc1NC(=O)c1ccc(-c2ccccc2)cc1 this time
Data returned: 5

Data request: Same question, COC(=O)c1ccccc1NC(=O)c1cccc2ccccc12 this time
Data returned: 5

Data request: Same question, CC(C)(C)OC(=O)NCc1ccccc1NC(=O)c1cnc2ccccc2c1 this time
Data returned: 15

Data request: Same question, COc1ccc2[nH]c(C(=O)Nc3cccc(C(N)=O)c3)cc2c1 this time
Data returned: 5

Data request: Same question, COC(=O)c1ccc(NC(=O)c2cc3cc([N+](=O)[O-])ccc3s2)cc1 this time
Data returned: 10

Data request: Same question, NCc1ccccc1NC(=O)c1cc2cc([N+](=O)[O-])ccc2o1 this time
Data returned: 5

Data request: Same question, CC(C)(C)OC(=O)NCc1ccccc1NC(=O)c1cc2ccccc2s1 this time
Data returned: 20

Data request: Same question, NC(=O)c1ccccc1NC(=O)c1cnc2ccccc2c1 this time
Data returned: 5

Data request: Same question, COC(=O)c1ccc(NC(=O)c2cc3cc([N+](=O)[O-])ccc3o2)cc1 this time
Data returned: 20

Data request: Same question, COC(=O)c1ccccc1NC(=O)c1cc2cc([N+](=O)[O-])ccc2o1 this time
Data returned: 25

Data request: Same question, COC(=O)c1ccccc1NC(=O)c1ccc2ccccc2c1 this time
Data returned: 25

Data request: Same question, NC(=O)c1ccccc1NC(=O)c1ccc2ccccc2n1 this time
Data returned: 10

Data request: Same question, COC(=O)c1ccc(NC(=O)c2ccc3ccccc3n2)cc1 this time
Data returned: 25

Data request: Same question, NC(=O)c1ccc(NC(=O)c2ccc3ccccc3n2)cc1 this time
Data returned: 5
